test system: dorsal shaved skin; test: Rat seven-day intracutaneous skin thinning test (skin thinning and systemic effects); type: in vivo, rat (male, strain CFHB); settings: mean; 8 mg intracutaneous (16×0.5 mg), autopsy seven days later; initial body weight 200±3 g; control 249
Documented Final body weight across a set of molecules
observation.type: Final body weight (g)

[[record]]
molecule = "CCCC(=O)O[C@]1(C(=O)CC)CC[C@H]2[C@@H]3CCC4=CC(=O)CC[C@]4(C)[C@H]3[C@@H](O)C[C@@]21C"
observed_measurement = 249

[[record]]
molecule = "CCCC(=O)O[C@]1(C(=O)CO)CC[C@H]2[C@@H]3CCC4=CC(=O)CC[C@]4(C)[C@H]3[C@@H](O)C[C@@]21C [g, hydrocortisone 17n-butyrate]"
observed_measurement = 227

[[record]]
molecule = "CCCCC(=O)O[C@]1(C(=O)CO)[C@@H](C)C[C@H]2[C@@H]3CCC4=CC(=O)C=C[C@]4(C)[C@@]3(F)[C@@H](O)C[C@@]21C [f, betamethasone 17valerate]"
observed_measurement = 229

[[record]]
molecule = "CC1(C)O[C@@H]2C[C@H]3[C@@H]4CCC5=CC(=O)C=C[C@]5(C)[C@@]4(F)[C@@H](O)C[C@]3(C)[C@]2(C(=O)CO)O1 [h, triamcinolone acetonide]"
observed_measurement = 142


---

tested on: dorsal shaved skin; test: Rat seven-day intracutaneous skin thinning test (skin thinning and systemic effects); type: in vivo, rat (male, strain CFHB); settings: mean; 4×4 cm area of treated skin, 8 mg intracutaneous, seven days; control 1.630
observation.type: Treated skin weight (g)

[[record]]
compound = "CCCC(=O)O[C@]1(C(=O)CO)CC[C@H]2[C@@H]3CCC4=CC(=O)CC[C@]4(C)[C@H]3[C@@H](O)C[C@@]21C [g, hydrocortisone 17n-butyrate]"
observation_type = "Treated skin weight"
observed_measurement = 1.410

[[record]]
compound = "CCCC(=O)O[C@]1(C(=O)CC)CC[C@H]2[C@@H]3CCC4=CC(=O)CC[C@]4(C)[C@H]3[C@@H](O)C[C@@]21C"
observation_type = "Treated skin weight"
observed_measurement = 1.660

[[record]]
compound = "CC1(C)O[C@@H]2C[C@H]3[C@@H]4CCC5=CC(=O)C=C[C@]5(C)[C@@]4(F)[C@@H](O)C[C@]3(C)[C@]2(C(=O)CO)O1 [h, triamcinolone acetonide]"
observation_type = "Treated skin weight"
observed_measurement = 1.107

[[record]]
compound = "CCCCC(=O)O[C@]1(C(=O)CO)[C@@H](C)C[C@H]2[C@@H]3CCC4=CC(=O)C=C[C@]4(C)[C@@]3(F)[C@@H](O)C[C@@]21C [f, betamethasone 17valerate]"
observation_type = "Treated skin weight"
observed_measurement = 1.445

